Biological target: Alpha-1A adrenergic receptor (Bos taurus)
Sequence (P18130 whole entry): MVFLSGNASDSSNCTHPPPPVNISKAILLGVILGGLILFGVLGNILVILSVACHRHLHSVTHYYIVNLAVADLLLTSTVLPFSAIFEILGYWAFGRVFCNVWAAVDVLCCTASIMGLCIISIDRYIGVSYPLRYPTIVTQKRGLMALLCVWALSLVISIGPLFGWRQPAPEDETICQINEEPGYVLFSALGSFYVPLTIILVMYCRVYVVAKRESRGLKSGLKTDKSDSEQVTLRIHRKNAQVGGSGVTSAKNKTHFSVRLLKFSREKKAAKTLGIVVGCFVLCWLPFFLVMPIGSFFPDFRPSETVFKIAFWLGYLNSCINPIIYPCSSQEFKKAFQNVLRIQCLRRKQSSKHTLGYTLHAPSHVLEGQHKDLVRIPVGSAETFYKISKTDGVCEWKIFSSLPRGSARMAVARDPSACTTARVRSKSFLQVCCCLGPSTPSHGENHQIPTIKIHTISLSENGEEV
Readout kind: IC50 (nM)
Numbers only, in nM.

Sample answers from the record:
COc1ccccc1N1CCN(CCCCc2ccc3[nH]c(=O)sc3c2)CC1 = 0.82
Cn1c(=O)sc2cc(CCN3CCN(c4cccc(C(F)(F)F)c4)CC3)ccc21 = 400

// each listed compound needs a value for IC50
1. Cn1c(=O)sc2cc(CCN3CCN(c4ccc(F)cc4)CC3)ccc21
2. O=c1[nH]c2ccc(CCCCN3CCN(c4cccc(C(F)(F)F)c4)CC3)cc2s1

Key:
[30, 45]

// input: 5 compounds below; output: IC50 for each
1. COc1ccccc1N1CCN(CCCCc2ccc3c(c2)sc(=O)n3C)CC1
2. COc1ccccc1N1CCN(CCc2ccc3nc(O)sc3c2)CC1
3. COc1ccccc1N1CCN(CCc2ccc3c(c2)sc(=O)n3C)CC1
4. O=c1[nH]c2ccc(CCN3CCN(c4cccc(C(F)(F)F)c4)CC3)cc2s1
5. COc1ccccc1N1CCN(CCCCc2ccc3c(c2)OCC(=O)N3C)CC1

Key:
1: 30; 2: 0.6; 3: 10; 4: 90; 5: 20

====

Target: UniProtKB Q75Z89
Sequence (Q75Z89 whole entry): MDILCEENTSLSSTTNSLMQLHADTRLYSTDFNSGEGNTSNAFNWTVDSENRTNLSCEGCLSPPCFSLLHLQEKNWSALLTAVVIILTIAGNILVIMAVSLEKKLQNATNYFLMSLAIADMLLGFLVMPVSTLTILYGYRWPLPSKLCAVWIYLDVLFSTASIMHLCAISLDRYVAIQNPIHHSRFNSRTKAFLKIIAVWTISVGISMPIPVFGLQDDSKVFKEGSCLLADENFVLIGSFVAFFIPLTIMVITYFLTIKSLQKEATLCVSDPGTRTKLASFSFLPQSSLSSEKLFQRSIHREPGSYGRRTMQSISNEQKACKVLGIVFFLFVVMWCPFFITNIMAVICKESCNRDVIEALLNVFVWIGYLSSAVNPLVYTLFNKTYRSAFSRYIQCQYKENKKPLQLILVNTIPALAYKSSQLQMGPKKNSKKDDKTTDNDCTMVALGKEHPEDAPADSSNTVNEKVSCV
Experiment: Affinity towards 5-hydroxytryptamine 2A receptor in membranes from bovine frontal cortex using [3H]ketanserin
Type: tissue-based
For each entry below, report its pIC50 value.
Give bare numbers, as −log10 of the molar value.

Dear colleague, could you please provide pIC50 for the molecules listed below?
1. Oc1nc2ccc(CCN3CCN(c4ccccc4O)CC3)cc2s1
2. Cn1c(=O)sc2cc(CCN3CCN(c4ccccc4O)CC3)ccc21
3. COc1ccccc1N1CCN(CCc2ccc3c(c2)OCC(=O)N3C)CC1
4. COc1ccccc1N1CCN(CCCCc2ccc3[nH]c(=O)sc3c2)CC1
5. COc1ccccc1N1CCN(CCc2ccc3nc(O)sc3c2)CC1
6. O=c1[nH]c2ccc(CCN3CCN(c4cccc(C(F)(F)F)c4)CC3)cc2s1

Key:
[6.28, 5.96, 6.22, 6.82, 6.52, 6.70]

Below are 3 molecules. Give each one its pIC50.
1. COc1ccccc1N1CCN(CCc2ccc3c(c2)sc(=O)n3C)CC1
2. Cn1c(=O)sc2cc(CCN3CCN(c4ccc(F)cc4)CC3)ccc21
3. COc1ccccc1N1CCN(CCCc2ccc3c(c2)sc(=O)n3C)CC1

Key:
1: 6.30; 2: 6.70; 3: 6.04

Reference source: ChEMBL document CHEMBL1131240
